Source: PubChem BioAssay (NCI)

Tested on: MOLT-4 leukemia
testName: NCI-60 one-dose screen, 48 h (100 = growth as untreated, 0 = no growth, -100 = all killed)
assayConditions: 10 µM unless noted
The panel holds about 83,000 compounds, 20% with a hit somewhere; the sample as a whole holds those more often.
Attribute: growth
Use % as the unit, but write only the number.

# growth (compound: C/C(=C\c1cc(C(F)(F)F)nn1CCNC(=O)OC(C)(C)C)[C@@H]1C[C@@H]2O[C@]2(C)CCC[C@H](C)[C@H](O)[C@@H](C)C(=O)C(C)(C)[C@@H](O)CC(=O)O1 ) is 25.1

# growth (compound: COC(=O)[C@H](Cc1ccccc1)NC(=O)c1csc([C@@H](C[C@H](C(C)C)N(C)C(=O)[C@@H](NC(=O)[C@H]2CCCN2C)C2CC2)OC(C)=O)n1 ) is 5.46

# growth (compound: CCOc1ccc(/C=C/[N+](=O)[O-])cc1 ) is 118

Others:
# growth (compound: C[C@]12CCc3sc(NCCc4ccccc4)nc3C1=CC[C@@H]1[C@@H]2CC[C@]2(C)C(=O)CC[C@@H]12 ) is 4.71

# growth (compound: COc1cc2c(=O)n(C3CCCCCCC3)c3c4cc[nH]c4ncc3c2cc1OC ) is 40.6

# growth (compound: CC(C)(C)C(=O)OCOP(=O)(NCc1ccccc1)C1CCCN(O)C1=O (configuration not stated) ) is 9.06
